Measured values drawn from ChEMBL document CHEMBL4270534 for this set.

Test system: Escherichia coli
procedure.details: Antibacterial activity against Escherichia coli after 24 hrs by micro broth dilution method
Format: functional
quantity.name: MIC (µg/mL)
Quick note: give the figure in µg/mL, leave out the unit.

// known answers, use as guide
Endpoint output: MIC of OC(Cn1cncn1)(Cn1c2ccccc2c2ccccc21)c1ccc(F)cc1F (configuration not stated) . Value?
128

Endpoint output: MIC of OC(Cn1cncn1)(Cn1c2ccc(Br)cc2c2cc(Br)ccc21)c1ccc(F)cc1F (configuration not stated) . Value?
16

Endpoint output: MIC of OC(Cn1cncn1)(Cn1c2ccc(Br)cc2c2cc(Br)ccc21)c1ccc(Cl)cc1 (configuration not stated) . Value?
128

Endpoint output: MIC of Cc1ccc(C(O)(Cn2cncn2)Cn2c3ccc(Br)cc3c3cc(Br)ccc32)cc1 (configuration not stated) . Value?
256

Endpoint output: MIC of `CCn1cc(C(=O)O)c(=O)c2cc(F)c(N3CCNCC3)cc21` . Value?
16

***
Endpoint output: MIC of OC(Cn1cncn1)(Cn1ccc2ccccc21)c1ccc(F)cc1F (configuration not stated) . Value?
64

Endpoint output: MIC of OC(Cn1cncn1)(Cn1c2ccccc2c2cc(Br)ccc21)c1ccc(F)cc1F (configuration not stated) . Value?
32

Endpoint output: MIC of OC(Cn1cncn1)(Cn1c2ccccc2c2cc(I)ccc21)c1ccc(F)cc1F (configuration not stated) . Value?
256

Endpoint output: MIC of OC(Cn1cncn1)(Cn1c2ccc(Br)cc2c2cc(Br)ccc21)c1ccc(Cl)c(Cl)c1 (configuration not stated) . Value?
64

Endpoint output: MIC of OC(Cn1cncn1)(Cn1c2ccc(Br)cc2c2cc(Br)ccc21)c1ccc(F)cc1 (configuration not stated) . Value?
64

Endpoint output: MIC of OC(Cn1cncn1)(Cn1c2ccccc2c2ccc(Br)cc21)c1ccc(F)cc1F (configuration not stated) . Value?
64

Endpoint output: MIC of CC(C)(C)c1ccc2c(c1)c1cc(C(C)(C)C)ccc1n2CC(O)(Cn1cncn1)c1ccc(F)cc1F (configuration not stated) . Value?
128
